The measured values listed here are drawn from patent US12187742B2.

tested target: DNA-PK (Homo sapiens (Human))
assay overview: DNA-PK Enzyme-Linked Immunosorbent Assay (phosphorylation of GST-p53 (1-101) peptide)
Assay type: biochemical
recorded conditions: ELISA, ATP 20 μM
Counter-ions that a name gives are not always drawn.
Recorded IC50 for the following compounds

> print(dat)
                                   compound  recorded.value
1  Cc1ccc(S(=O)(=O)Nc2cc(-c3cc4c5c(cnc4cc3F)N(C)C(=O)C53CCC3)cnc2N2CC(N(C)C)C2)cc1 [Example 323, hydrochloride]     1 to 100 nM

Now let's try a different one.
Incoming: Give a short answer stating reported IC50 for `CN(CCC#N)CCCOc1ncc(-c2ccc3ncc4c(c3c2)C2(CCC2)C(=O)N4C)cc1NS(C)(=O)=O` .
Outgoing: > 100 nM
